biological target: T1, PSMA (Homo sapiens, UniProt Q04609); assay: Small-angle X-ray scattering of PSMA-NB complexes; conditions: PSMA + NB, method GNOM
T1 construct: purified extracellular domain of PSMA [residues 44-750; purchased from Caltech Protein Expression Center, CA]; purchased Caltech Protein Expression Center, CA
T1 sequence (Q04609 44-750): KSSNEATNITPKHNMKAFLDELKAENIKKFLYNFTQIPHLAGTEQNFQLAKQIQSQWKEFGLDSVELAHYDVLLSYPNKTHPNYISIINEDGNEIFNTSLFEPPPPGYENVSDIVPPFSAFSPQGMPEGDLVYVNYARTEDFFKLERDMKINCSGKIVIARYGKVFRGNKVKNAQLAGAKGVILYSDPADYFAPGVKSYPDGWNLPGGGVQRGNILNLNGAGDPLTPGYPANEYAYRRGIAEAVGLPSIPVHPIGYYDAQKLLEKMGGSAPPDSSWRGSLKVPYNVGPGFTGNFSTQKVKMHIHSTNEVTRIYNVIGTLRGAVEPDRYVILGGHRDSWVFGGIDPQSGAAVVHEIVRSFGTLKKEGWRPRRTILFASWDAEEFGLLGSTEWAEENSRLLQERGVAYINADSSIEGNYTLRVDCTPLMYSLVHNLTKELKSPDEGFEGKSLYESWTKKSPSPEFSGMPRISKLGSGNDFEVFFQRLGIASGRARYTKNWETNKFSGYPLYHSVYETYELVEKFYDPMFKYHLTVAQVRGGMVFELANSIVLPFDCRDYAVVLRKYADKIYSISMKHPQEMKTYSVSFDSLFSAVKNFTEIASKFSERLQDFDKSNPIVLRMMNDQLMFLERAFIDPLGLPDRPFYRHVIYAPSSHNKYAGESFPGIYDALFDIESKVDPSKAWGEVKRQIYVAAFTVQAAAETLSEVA
resultType: Rg (Å)
# number only, unit Å dropped from output

molecule	resultType	unitInfo	numericValue
NB37: anti-PSMA camel nanobody (VHH, ~16 kDa) selected by phage display; PDB 6XXP (protein) VHH: QVQLQESGGGSVEAGGSLRLSCARSGWPYSTYSMNWFRQAPGKEREAVAGISSTMSGIIFAESKAGQFTISQDNAKNTVYLQMNNLKPEDTAIYYCAARRDYSLSSSSDDFDYWGQGTQVTVSSAAAYPYDVPDYGS	Rg	Å	38.6
NB13: anti-PSMA camel nanobody (VHH, ~16 kDa) selected by phage display (protein) VHH: QVQLQESGGGSVQTGGSLRLSCAASGYTASFSWIGYFRQAPGKEREGVAVINVGVGSTYYADSVKGRFTISRDNTENTISLEMNSLKPEDTGLYYCAGSLRWSRPPNPISEDAYNYWGQGTQVTVSSAAAYPYDVPDYGS	Rg	Å	40.5
NB7: anti-PSMA camel nanobody (VHH, ~16 kDa) selected by phage display; PDB 6XXN (protein) VHH: QVQLQESGGGSVQAGGSLRLSCTAPGYTDSNYYMSWFRQAPGKEREWVAGVNTGRGSTSYADSVKGRFTISQDNAKNTMFLQMNSLKPEDTAIYYCAVAACHFCDSLPKTQDEYILWGQGTQVTVSSAAAYPYDVPDYGS	Rg	Å	42.4

Moving on to another molecule below.
Reported Rg for NB8: anti-PSMA camel nanobody (VHH, ~16 kDa) selected by phage display; PDB 6XXO (protein) VHH: QVQLQESGGGSVQAGGSLRLSCARSGWPYSTYSMNWFRQAPGKEREAVAGISSTMSGIIFAESKAGQFTISQDNAKNTVYLQMNNLKPEDTAIYYCAARRDYSLSSSSDDFDYWGQGTQVTVSSAAAYPYDVPDYGS was 39.4
